Where do these numbers come from? They come from patent US8552048B2.

experiment: Pharmacokinetics of TH302 in Beagle Dogs (Table 6); assay type: in vivo; conditions: female, dog, plasma, intravenous, Females, 32 mg/kg, read-out: T½ (converted)
OUTCOME MEASURE: half-life (min)
Answers are plain numbers, in min.

Looking for the measured half-life of `Cn1c(COP(=O)(NCCBr)NCCBr)cnc1[N+](=O)[O-]` , can you help?
15.4

###

assay: Pharmacokinetics in Sprague-Dawley rats (single dose i.v. and p.o.); format: in vivo, male Sprague-Dawley rats; conditions: male, Sprague-Dawley, rat, plasma, iv, 5 mg/kg, rats, 5 mg/kg i.v. bolus, individual animals
OUTCOME MEASURE: AUC(0-inf) (ng·h/mL)
Answers are plain numbers, in ng·h/mL.

Looking for the measured AUC(0-inf) of `Cn1c(COP(=O)(NCCBr)NCCBr)cnc1[N+](=O)[O-]` , can you help?
732

###

assay: Pharmacokinetics in Sprague-Dawley rats (single dose i.v. and p.o.); type: in vivo, male Sprague-Dawley rats; settings: male, Sprague-Dawley, rat, in vivo, iv; rats, 1 mg/kg i.v. bolus, MEAN; read-out: T1/2 (converted)
OUTCOME MEASURE: half-life (h)
Answers are plain numbers, in h.

Looking for the measured half-life of Cn1c(COP(=O)(NCCBr)NCCBr)cnc1[N+](=O)[O-] [TH302] , can you help?
2.03

###

experiment: Pharmacokinetics in Sprague-Dawley rats (single dose i.v. and p.o.); type: in vivo, male Sprague-Dawley rats; conditions: male, Sprague-Dawley, rat, plasma, iv, 20 mg/kg, rats, 20 mg/kg i.v. bolus, individual animals; read-out: AUC(0-t)
OUTCOME MEASURE: AUC(0-t) (µg·h/mL)
Give bare numbers, in µg·h/mL.

Looking for the measured AUC(0-t) of Cn1c(COP(=O)(NCCBr)NCCBr)cnc1[N+](=O)[O-] [TH302] , can you help?
2.83

###

experiment: Pharmacokinetics after repeated administration (Q7D×3) to rats; format: in vivo; conditions: rat, plasma, iv; TH302 in rats, 50 mg/kg Q7D×3, Day 15; read-out: Half-Life (converted)
OUTCOME MEASURE: half-life (min)
Answers are plain numbers, in min.

Looking for the measured half-life of `Cn1c(COP(=O)(NCCBr)NCCBr)cnc1[N+](=O)[O-]` , can you help?
20.8

###

assay: Pharmacokinetics in Sprague-Dawley rats (single dose i.v. and p.o.); format: in vivo, male Sprague-Dawley rats; conditions: male, Sprague-Dawley, rat, plasma, iv, 20 mg/kg, rats, 20 mg/kg i.v. bolus, individual animals; read-out: CL (converted)
OUTCOME MEASURE: clearance (mL/min/kg)
Answers are plain numbers, in mL/min/kg.

Looking for the measured clearance of `Cn1c(COP(=O)(NCCBr)NCCBr)cnc1[N+](=O)[O-]` , can you help?
114

###

test: Pharmacokinetics after repeated administration (Q7D×3) to rats; format: in vivo; details: rat, plasma, iv; TH302 in rats, 25 mg/kg Q7D×3, Day 15; read-out: AUC
OUTCOME MEASURE: AUC (ng·h/mL)
Answers are plain numbers, in ng·h/mL.

Looking for the measured AUC of `Cn1c(COP(=O)(NCCBr)NCCBr)cnc1[N+](=O)[O-]` , can you help?
2110

###

test: Pharmacokinetics of TH302 in Beagle Dogs (Table 6); format: in vivo; settings: female, dog, plasma, intravenous, Females, 32 mg/kg
OUTCOME MEASURE: clearance (mL/min/kg)
Numbers only, in mL/min/kg.

Looking for the measured clearance of `Cn1c(COP(=O)(NCCBr)NCCBr)cnc1[N+](=O)[O-]` , can you help?
56.5
